- Test Description: solvent given as SMILES
- Measurement Conditions: in CCOC(C)=O
Measured Metric: absorption maximum (nm)
Please reply with the bare figure in nm and do not write the unit itself.

[Q] Please look up its absorption maximum: CCN(CC)c1ccc2cc(/C=C/C3=CC(/C=C/c4cc5ccc(N(CC)CC)cc5oc4=O)=[O+][B-](F)(F)O3)c(=O)oc2c1
[A] 604

[Q] Please look up its absorption maximum: c1ccc(Nc2nc(Nc3ccccc3)nc(Nc3ccc4cc5ccccc5cc4c3)n2)cc1
[A] 402

[Q] Please look up its absorption maximum: O=Cc1ccc(C2=C3C=c4c(oc5ccccc45)=[N+]3[B-](F)(F)n3c2cc2c4ccccc4oc23)cc1
[A] 587
